Exercise: state measured abundance fitness for each of the variants provided.
B1: Kinesin-like protein KIF16B, residues 1213 to 1273; numbered along this chain, Q96L93 (parent)
chain: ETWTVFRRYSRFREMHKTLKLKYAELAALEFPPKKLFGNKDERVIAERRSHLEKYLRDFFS

- Variants of: B1
- ASSAY_REMARKS: abundance fitness (aPCA) (normalised: wild type 0, dead -1); higher = more abundant; growth selection in yeast, the domain comes from the species named
- TEST_SETTINGS: Homo sapiens

Complete the entry with abundance fitness for W3Q
-0.771

Complete the entry with abundance fitness for V44Q
0.047

Complete the entry with abundance fitness for E47Q
-0.175

Complete the entry with abundance fitness for H16V
0.342

Complete the entry with abundance fitness for R8P
-0.092

Complete the entry with abundance fitness for E25Q
0.015

Complete the entry with abundance fitness for H51C
-0.359

Complete the entry with abundance fitness for T2L
0.274

Complete the entry with abundance fitness for L19C
-0.603

Complete the entry with abundance fitness for D41C
0.101

Complete the entry with abundance fitness for R57N
-0.395

Complete the entry with abundance fitness for S61V
-0.029

Complete the entry with abundance fitness for K17E
-0.311

Complete the entry with abundance fitness for R57S
-0.427

Complete the entry with abundance fitness for K17L
-1

Complete the entry with abundance fitness for L19Q
-0.991

Complete the entry with abundance fitness for R57E
-0.636

Complete the entry with abundance fitness for P33V
0.17

Complete the entry with abundance fitness for R43H
0.129

Complete the entry with abundance fitness for S50G
-0.1

Complete the entry with abundance fitness for R48W
0.275

Complete the entry with abundance fitness for D58V
-0.048

Complete the entry with abundance fitness for S61Y
-0.81

Complete the entry with abundance fitness for A24R
0.178

Complete the entry with abundance fitness for E1V
-0.846

Complete the entry with abundance fitness for R7H
0.225

Complete the entry with abundance fitness for P33W
0.322

Complete the entry with abundance fitness for T2Q
-0.541

Complete the entry with abundance fitness for H51D
-0.778

Complete the entry with abundance fitness for K17Q
-0.452

Complete the entry with abundance fitness for F12V
0.047

Complete the entry with abundance fitness for F6V
-0.107

Complete the entry with abundance fitness for L21V
0.114

Complete the entry with abundance fitness for Y9L
0.063

Complete the entry with abundance fitness for T2C
-0.5

Complete the entry with abundance fitness for P33L
0.366

Complete the entry with abundance fitness for L36E
-0.592

Complete the entry with abundance fitness for H51P
-0.164

Complete the entry with abundance fitness for K20P
-0.904
